Target: Acetylcholinesterase (Electrophorus electricus) (UniProt O42275)
Sequence (O42275 24-633 limits assumed): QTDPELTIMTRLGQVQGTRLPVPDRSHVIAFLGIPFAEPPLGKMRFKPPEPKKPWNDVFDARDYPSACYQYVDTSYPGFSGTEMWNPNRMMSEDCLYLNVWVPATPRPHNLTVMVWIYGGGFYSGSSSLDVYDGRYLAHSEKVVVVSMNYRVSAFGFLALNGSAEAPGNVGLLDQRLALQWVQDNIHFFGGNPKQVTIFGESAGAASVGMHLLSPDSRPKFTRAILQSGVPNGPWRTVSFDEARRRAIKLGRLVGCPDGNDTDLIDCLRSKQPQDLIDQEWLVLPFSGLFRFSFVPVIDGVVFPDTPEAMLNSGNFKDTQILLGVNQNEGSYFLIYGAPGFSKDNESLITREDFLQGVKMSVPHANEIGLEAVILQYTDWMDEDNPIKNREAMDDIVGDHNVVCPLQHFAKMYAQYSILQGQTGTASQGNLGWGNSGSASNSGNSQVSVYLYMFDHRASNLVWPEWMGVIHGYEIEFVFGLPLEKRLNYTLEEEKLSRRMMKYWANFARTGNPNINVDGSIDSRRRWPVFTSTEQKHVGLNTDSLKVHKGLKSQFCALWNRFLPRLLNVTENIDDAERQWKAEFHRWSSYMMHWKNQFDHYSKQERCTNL
Conditions: at 2 mg/mL
Description: Inhibition of electric eel AChE at 2 mg/ml by Ellman's method
recorded-endpoint: inhibition (%)
Just the number please, in %, no unit attached.

Reported inhibition of COc1ccc(-c2cc(=O)c3c(O)cc(O[C@@H]4O[C@H](CO[C@@H]5O[C@@H](C)[C@H](O)[C@@H](O)[C@H]5O)[C@@H](O)[C@H](O)[C@H]4O)cc3o2)cc1O : 9.59

Reported inhibition of COc1cc2c(c(OC)c1OC)-c1ccc(OC)c(=O)cc1[C@@H](NC(C)=O)CC2 : 0.14

Reported inhibition of CC1(C)CCC[C@]2(C)[C@H]3CC(=O)O[C@]3(C)CC[C@@H]12 : -6.49

Reported inhibition of CO[C@H]1[C@H](O)[C@H](O[C@H]2CC[C@@]3(C=O)[C@H](CC[C@@H]4[C@@H]3CC[C@]3(C)[C@@H](C5=CC(=O)OC5)CC[C@]43O)C2)O[C@@H](C)[C@@H]1O : 4.45

Reported inhibition of COc1cc(/C=C/C(=O)c2ccc(O)cc2O)ccc1O : 26.5

Reported inhibition of COc1cc2c(cc1O)CCN[C@H]2C : 10.8
